# Test system: SU-DHL-6
# assayInfo: Antiproliferative activity against human SU-DHL-6 cells assessed as cell growth inhibition incubated for 72 hrs by MTT assay
# Type: functional
quantityName: GI50 (nM)

A: COc1ncc(-c2ccc3ncnc(N[C@H]4CCN(C(=O)C5CCN(CCCCCCCC(=O)N[C@H](C(=O)N6C[C@H](O)C[C@H]6C(=O)NCc6ccc(-c7scnc7C)cc6)C(C)(C)C)CC5)C4)c3n2)cc1C(=O)Oc1ccccc1
B: COc1ncc(-c2ccc3ncnc(N[C@H]4CCN(CCCCCCCCCC(=O)N[C@H](C(=O)N5C[C@H](O)C[C@H]5C(=O)NCc5ccc(-c6scnc6C)cc5)C(C)(C)C)C4)c3n2)cc1C(=O)Oc1ccccc1
Query :: Quick check, higher GI50 between A and B ? Write down the label attached to your selection.
Result :: B

----------
# System: SU-DHL-6
# assayInfo: Antiproliferative activity against human SU-DHL-6 cells assessed as cell growth inhibition incubated for 72 hrs by MTT assay
# Assay type: functional
quantityName: GI50 (µM)

a: COc1ncc(-c2ccc3ncnc(N[C@H]4CCN(C(=O)C5CCN(CCCCCCCCC(=O)N[C@H](C(=O)N6C[C@H](O)C[C@H]6C(=O)NCc6ccc(-c7scnc7C)cc6)C(C)(C)C)CC5)C4)c3n2)cc1C(=O)Oc1ccccc1
b: COc1ncc(-c2ccc3ncnc(N[C@H]4CCN(C(=O)C5CCN(CCCCCCCCCCCC(=O)N[C@H](C(=O)N6C[C@H](O)C[C@H]6C(=O)NCc6ccc(-c7scnc7C)cc6)C(C)(C)C)CC5)C4)c3n2)cc1C(=O)Oc1ccccc1
Query :: Quick check, higher GI50 between a and b ? Write down the label attached to your selection.
Result :: a

a: COc1ncc(-c2ccc3ncnc(N[C@H]4CCN(C(=O)C5CCN(CCCCCCCCCC(=O)N[C@H](C(=O)N6C[C@@H](O)C[C@H]6C(=O)N[C@@H](C)c6ccc(-c7scnc7C)cc6)C(C)(C)C)CC5)C4)c3n2)cc1C(=O)Oc1ccccc1
b: COc1ncc(-c2ccc3ncnc(N[C@H]4CCN(C(=O)C5CCN(CCCCCCCCCC(=O)N[C@H](C(=O)N6C[C@H](O)C[C@H]6C(=O)NCc6ccc(-c7scnc7C)cc6)C(C)(C)C)CC5)C4)c3n2)cc1C(=O)Oc1ccccc1
Query :: I'm curious, which of these has a smaller GI50 number: a or b ? Write down the label attached to your selection.
Result :: b

1: COc1ncc(-c2ccc3ncnc(N[C@H]4CCN(CCCCCCC(=O)N[C@H](C(=O)N5C[C@H](O)C[C@H]5C(=O)NCc5ccc(-c6scnc6C)cc5)C(C)(C)C)C4)c3n2)cc1C(=O)Oc1ccccc1
2: COc1ncc(-c2ccc3ncnc(N[C@H]4CCN(C(=O)C5CCN(C(=O)CCCCCCCCCN[C@H](C(=O)N6C[C@H](O)C[C@H]6C(=O)NCc6ccc(-c7scnc7C)cc6)C(C)(C)C)CC5)C4)c3n2)cc1C(=O)Oc1ccccc1
Query :: I'm curious, which of these has a smaller GI50 number: 1 or 2 ? Write down the label attached to your selection.
Result :: 2

A: COc1ncc(-c2ccc3ncnc(N[C@H]4CCN(C(=O)C5CCN(CCCCCCCCCCCCC(=O)N[C@H](C(=O)N6C[C@H](O)C[C@H]6C(=O)NCc6ccc(-c7scnc7C)cc6)C(C)(C)C)CC5)C4)c3n2)cc1C(=O)Oc1ccccc1
B: COc1ncc(-c2ccc3ncnc(N[C@H]4CCN(C(=O)C5CCN(CCCCCCCCCC(=O)N[C@H](C(=O)N6C[C@H](O)C[C@H]6C(=O)N[C@@H](C)c6ccc(-c7scnc7C)cc6)C(C)(C)C)CC5)C4)c3n2)cc1C(=O)Nc1ccccc1
C: COc1ncc(-c2ccc3ncnc(N[C@H]4CCN(C(=O)C5CCN(CCCCCC(=O)N[C@H](C(=O)N6C[C@H](O)C[C@H]6C(=O)NCc6ccc(-c7scnc7C)cc6)C(C)(C)C)CC5)C4)c3n2)cc1C(=O)Oc1ccccc1
Query :: Could you please order the items by GI50, going from the lowest number to the highest? Put the labels in the order asked and list them.
Result :: A, B, C
(A: 0.48 µM, B: 0.9 µM, C: 2.47 µM)

----------
# Test system: SU-DHL-6
# assayInfo: Antiproliferative activity against human SU-DHL-6 cells assessed as cell growth inhibition incubated for 72 hrs by MTT assay
# Type: functional
Entries and their measured GI50 follow.

Recorded results for 2 compounds are shown here.
compound | GI50
COc1ncc(-c2ccc3ncnc(N[C@H]4CCN(C(=O)CCC(=O)NCCCCCC(=O)Nc5cccc6c5CN(C5CCC(=O)NC5=O)C6=O)C4)c3c2)cc1C#N (stereo partly drawn) | > 10 µM
COc1ncc(-c2ccc3ncnc(N[C@H]4CCN(C(=O)CCC(=O)NCCCC(=O)Nc5cccc6c5CN(C5CCC(=O)NC5=O)C6=O)C4)c3c2)cc1C#N (stereo partly drawn) | > 10 µM

Query :: Entry `COc1ncc(-c2ccc3ncnc(N[C@H]4CCN(C(=O)CCCCCCC(=O)N[C@H](C(=O)N5C[C@H](O)C[C@H]5C(=O)NCc5ccc(-c6scnc6C)cc5)C(C)(C)C)C4)c3c2)cc1C#N` has what GI50?
Result :: > 10 µM
